tested on: Plasmodium berghei; test: Screen against P. berghei liver stage (PbLuc), transformed with Luciferase, at 10uM; type: functional, HepG2; details: tested at 10 uM
Out of some 69,000 compounds screened, about 8,600 (12%) showed an effect of 50% or more. What follows is part of a selection rich in strong results, with near analogues and random picks from the rest.
Overview of reported INHIBITION across a group of molecules:
Please state the figure in %; there is no need to write the unit.

Study these solved cases before continuing.
CN(Cc1ccncc1)C1COC2(CCN(Cc3nccn3C)CC2)C1 (stereo not given) : 73
COCCCNC(=O)CN(C)C(=O)c1ccccc1O : 20.4

Task item: Give reported INHIBITION for O=C(CCN1CCCC1=O)Nc1cnn(-c2ccccc2Cl)c1 (Plasmodium berghei)
Reply: -46.4

Task item: Give reported INHIBITION for Cc1cc(NC(=O)CN2CCC(N(C)Cc3ncc(C)o3)C2)n(C)n1 (stereo not given) (Plasmodium berghei)
Reply: -29.9

Task item: Give reported INHIBITION for CN(Cc1ccncc1)C1CC2(CCN(Cc3ccccn3)CC2)C1 (Plasmodium berghei)
Reply: 28.7

Task item: Give reported INHIBITION for c1ccc(OC[C@H]2CCC[C@]23CN(Cc2nccs2)CCO3)nc1 (Plasmodium berghei)
Reply: 38.7

Task item: Give reported INHIBITION for CN(Cc1ccccn1)C1COC2(CCN(Cc3cccnc3)CC2)C1 (stereo not given) (Plasmodium berghei)
Reply: 38.1

* * *

tested on: Plasmodium berghei; assay: Screen against P. berghei liver stage (PbLuc), transformed with Luciferase, at 10uM; format: functional, HepG2; conditions: tested at 10 uM
Out of some 69,000 compounds screened, about 8,600 (12%) showed an effect of 50% or more. The list comes from a sample in which strong results are over-represented; it also holds close analogues and randomly drawn compounds.
Overview of reported INHIBITION across a group of compounds:
Please state the figure in %; there is no need to write the unit.

Task item: Kindly indicate its recorded INHIBITION. Item: CCc1nc(C2CCCN2Cc2nnc(C3CC3)o2)no1 (configuration not stated)
Reply: -5

* * *

test system: Plasmodium berghei; assay: Screen against P. berghei liver stage (PbLuc), transformed with Luciferase, at 10uM; type: functional, HepG2; conditions: tested at 10 uM
The campaign covered roughly 69,000 compounds. About 8,600 (12%) showed an effect of 50% or more. Only a selection was taken, and strong results are over-represented in it overall.
readout.type: INHIBITION (%)
Please state the figure in %; there is no need to write the unit.

Study these solved cases before continuing.
Cc1nocc1C(=O)N1CCOC2(COCCN(C(C)C)C2)C1 (stereo not drawn) : 20.6
COc1ccccc1CN1CC(O)CN(S(=O)(=O)C(C)C)CC1=O (stereo not drawn) : 28.3

Task item: Kindly indicate its recorded INHIBITION. Item: Cc1nc(C)n(C2CCCN(C(=O)c3ccc(OC(C)C)nc3)C2)n1 (stereo not drawn)
Reply: 5.907

* * *

tested on: Plasmodium berghei; experiment: Screen against P. berghei liver stage (PbLuc), transformed with Luciferase, at 10uM; assay type: functional, HepG2; conditions: tested at 10 uM
In all, about 69,000 compounds went through this assay and about 8,600 (12%) showed an effect of 50% or more. Only a selection was taken, and strong results are over-represented in it overall.
Overview of reported INHIBITION across a group of molecules:
Write down the value, and be sure its unit follows.

Study these solved cases before continuing.
Cc1cc(NC(=O)C2CCN(c3nnc(C)c(C)c3C#N)CC2)no1 : 19.4%
CS(=O)(=O)c1ccc(NC(=O)NCc2ccc3c(c2)CCC3)cn1 : 24%
CN1C(=O)c2ccc(NC(=O)CSc3ccc4c(c3)CCC4)cc2C1=O : 11.5%

Task item: Give reported INHIBITION for CN1CC(=O)N(c2ccsc2)CC12CCN(S(=O)(=O)C1CC1)C2 (stereo not given) (Plasmodium berghei)
Reply: -6.23%

Task item: Give reported INHIBITION for NS(=O)(=O)c1ccc(NC(=O)CSc2ccc3c(c2)CCC3)cc1 (Plasmodium berghei)
Reply: 66.8%

* * *

system: Plasmodium berghei; assay: Screen against P. berghei liver stage (PbLuc), transformed with Luciferase, at 10uM; assay type: functional, HepG2; details: tested at 10 uM
Screen size: about 69,000 compounds; about 8,600 (12%) showed an effect of 50% or more. The entries come from a sample that favours strong results as a whole.
Overview of reported INHIBITION across a group of molecules:
Write down the value, and be sure its unit follows.

Study these solved cases before continuing.
CCCc1nnc(N2CCN(c3cccc(C)c3C)CC2)o1 : 30.1%
Cn1cc(CN2CCCC3(CCCCN3S(C)(=O)=O)C2)cn1 (configuration not stated) : 18.3%
O=C1CCOC[C@]2(CN(Cc3ccccc3)C[C@H]2c2cccnc2)N1 : 20.6%
CN1CCC(Cc2noc(CC3CC3)n2)CC1 : 48.8%

Task item: Kindly indicate its recorded INHIBITION. Item: O=C(c1ccc2c(c1)CCC2)N1CCn2ncnc2C1
Reply: 40.4%

Task item: Kindly indicate its recorded INHIBITION. Item: COc1cc(CNCC(O)c2ccc(C)cc2)cc2c1OCCO2 (configuration not stated)
Reply: 21.8%

Task item: Kindly indicate its recorded INHIBITION. Item: O=C1OCCN1CCNC(=O)C1(N2CCCCC2)Cc2ccccc2C1
Reply: 6.54%

Task item: Kindly indicate its recorded INHIBITION. Item: Cc1cc(-c2cnc(NCc3ccncc3)nc2C(C)C)on1
Reply: 94.1%

Task item: Kindly indicate its recorded INHIBITION. Item: COCC(=O)N1CCN(C)C(=O)C(Cc2ccccc2-c2cccs2)C1 (configuration not stated)
Reply: -20.6%

Task item: Kindly indicate its recorded INHIBITION. Item: CCNS(=O)(=O)c1ccc(C)c(C(=O)N(C)Cc2ccccc2C)c1
Reply: 67.3%

Task item: Kindly indicate its recorded INHIBITION. Item: O=C(NCCNc1ncccn1)N1CCCC1
Reply: -0.113%

Task item: Kindly indicate its recorded INHIBITION. Item: COc1cc(NCCCSc2nnc(C)s2)ncn1
Reply: 42.1%

Task item: Kindly indicate its recorded INHIBITION. Item: COCc1cc(NCc2ccccc2OC)ncn1
Reply: 12.6%

Task item: Kindly indicate its recorded INHIBITION. Item: COCc1noc(Cn2c(C3CC3)nc3ccccc32)n1
Reply: 39.2%

Task item: Kindly indicate its recorded INHIBITION. Item: CCCNC(=O)c1ccc2c(c1)C(=O)N(CC(C)C)C2=O
Reply: 31.8%

Task item: Kindly indicate its recorded INHIBITION. Item: Cc1nc(CN2Cc3nccn3CC(CN3CCCC3)C2)cs1 (configuration not stated)
Reply: -29.3%

Task item: Kindly indicate its recorded INHIBITION. Item: Cn1ccc(C(=O)NC2CCC23CCN(C(=O)c2ccncc2)CC3)c1 (configuration not stated)
Reply: 13.5%

Task item: Kindly indicate its recorded INHIBITION. Item: CN1CCN(Cc2noc(CC3CCc4ccccc43)n2)CC1 (configuration not stated)
Reply: 42.1%

* * *

tested on: Plasmodium berghei; experiment: Screen against P. berghei liver stage (PbLuc), transformed with Luciferase, at 10uM; type: functional, HepG2; conditions: tested at 10 uM
Hit rate of the full screen: of about 69,000 compounds, about 8,600 (12%) showed an effect of 50% or more. The sample as a whole holds a higher share of strong results than the screen did.
Overview of reported INHIBITION across a group of compounds:
Please state the figure in %; there is no need to write the unit.

Cc1noc(CN2CCCC(Cn3nc(C)nc3C)C2)n1 (stereo not drawn) : 27.8
O=C(CN1CCOC(Cn2cncn2)C1)NC(C1CC1)C1CC1 (stereo not drawn) : 23.9

# evaluate next
Task item: Kindly indicate its recorded INHIBITION. Item: CCc1nc(CN2CCCC(Cn3nc(C)nc3C)C2)no1 (stereo not drawn)
Reply: 33.3

* * *

test system: Plasmodium berghei; test: Screen against P. berghei liver stage (PbLuc), transformed with Luciferase, at 10uM; type: functional, HepG2; conditions: tested at 10 uM
In all, about 69,000 compounds went through this assay and about 8,600 (12%) showed an effect of 50% or more. The list comes from a sample in which strong results are over-represented; it also holds close analogues and randomly drawn compounds.
Overview of reported INHIBITION across a group of compounds:
Please state the figure in %; there is no need to write the unit.

Study these solved cases before continuing.
O=C1CC2(CCCNC2)C(=O)N1Cc1ccccc1 (centres undefined) : 27.4
CC(C)CC(=O)N1CC(=O)c2sc(NC3CCCCC3)nc2C1 : 10
CSCC(=O)N1CCCN(Cc2cscn2)CC1 : 7.77
CN(C)C(=O)c1cc(S(=O)(=O)N2CCCC2Cn2ccnc2)cn1C (centres undefined) : 61.5
O=C1CC2(CCCNC2)C(=O)N1Cc1ccc(F)cc1 (centres undefined) : 4.06
NC(=O)c1ccc(CN2C(=O)C3(CCNCC3)Nc3ccccc32)cc1 : 67

Task item: Give reported INHIBITION for CCCN1CCC(NC(=O)c2csc(C)c2-c2ccc(C)cc2)CC1 (Plasmodium berghei)
Reply: 1.56

Task item: Give reported INHIBITION for CCCN1CCC(NC(=O)c2ccc(F)cc2I)CC1 (Plasmodium berghei)
Reply: 46.8

Task item: Give reported INHIBITION for C=Cc1ccc(CN2CCCC3(CNC(=O)c4ccccc4O3)C2)cc1 (centres undefined) (Plasmodium berghei)
Reply: 29.2
